Molecular target: FGFR3 (UniProt P22607)
Sequence (P22607 whole entry, looked up): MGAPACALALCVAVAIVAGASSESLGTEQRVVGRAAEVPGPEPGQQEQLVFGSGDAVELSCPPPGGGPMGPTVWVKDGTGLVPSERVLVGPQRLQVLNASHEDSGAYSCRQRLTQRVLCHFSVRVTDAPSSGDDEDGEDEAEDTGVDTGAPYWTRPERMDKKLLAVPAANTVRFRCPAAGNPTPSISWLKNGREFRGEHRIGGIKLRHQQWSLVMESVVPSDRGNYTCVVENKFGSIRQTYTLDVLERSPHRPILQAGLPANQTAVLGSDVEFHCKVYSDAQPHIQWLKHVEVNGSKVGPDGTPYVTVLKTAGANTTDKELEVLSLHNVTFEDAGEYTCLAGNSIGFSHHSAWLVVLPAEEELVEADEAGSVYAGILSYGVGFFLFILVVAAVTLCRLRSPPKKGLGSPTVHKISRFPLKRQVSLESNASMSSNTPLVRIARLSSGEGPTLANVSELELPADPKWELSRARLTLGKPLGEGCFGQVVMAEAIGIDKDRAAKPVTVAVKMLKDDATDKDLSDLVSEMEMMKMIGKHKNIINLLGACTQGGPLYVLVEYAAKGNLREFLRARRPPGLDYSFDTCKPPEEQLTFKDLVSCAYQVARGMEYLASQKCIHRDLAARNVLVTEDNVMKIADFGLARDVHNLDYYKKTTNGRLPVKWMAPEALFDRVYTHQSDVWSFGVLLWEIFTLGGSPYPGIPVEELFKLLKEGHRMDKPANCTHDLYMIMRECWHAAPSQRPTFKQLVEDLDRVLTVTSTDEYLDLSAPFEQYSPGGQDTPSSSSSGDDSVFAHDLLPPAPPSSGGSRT
Assay: phosphorylation enrichment, bacterial display (enrichment ratio); higher = better substrate or ligand; peptides without Tyr show the background;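 further: 11-residue human phosphosite peptides and single-mutation variants displayed on the E. coli surface, counted by deep sequencing, each peptide's frequency after selection divided by its frequency in the unselected input library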;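 further: frequency after pTyr selection over input frequency; kinase dosed for 20-30% of maximal phosphorylation in three min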

Query Sequence: KAIMIYVSSFY [ACTN4_Y260_T259I]
phosphorylation enrichment: 0.701

Query Sequence: VEDQFYRVDCF [FHL1_Y208_C209R_YF]
phosphorylation enrichment: 0.831

Query Sequence: NDLMEYPKQHG [ASS1_Y163_A164P]
phosphorylation enrichment: 0.48

Query Sequence: CERLPYDANKW [FLT1_Y815_S818N]
phosphorylation enrichment: 0.817

Query Sequence: LAGRFYALRSM [CKB_Y174_K177R_YF]
phosphorylation enrichment: 1.84

Query Sequence: DSEIRYLSADS [TTF1_Y476]
phosphorylation enrichment: 0.709

Query Sequence: PESIMYRKFTT [NTRK3_Y744]
phosphorylation enrichment: 0.667
